TEST_SYSTEM: type V tartrate-resistant acid phosphatase (TRAP) protein, immobilised on CM5 sensor chip
ASSAY_PROTOCOL: SPR, TRAP amine-coupled to CM5 chip, initial rate analysis of sensorgrams
Ends that are not written are not given here.
QUANTITY: pKd
Answers are plain numbers, as −log10 of the molar value.

Solved cases below.
{"columns": ["BINDER", "pKd"],
 "data": [
  ["TPLSYLKGLVTVG-OH (not fully specified (N-terminus); also: RAFT copolymer with PEG methyl ether methacrylate (300 Da), about 3 peptides per chain) [5% TBP-functionalized PEG polymer of Table 4, M:CTA:I 125:1:0.1, Mn 17.1 kDa]", 4.15],
  ["TPLSYLKGLVTVG-OH (not fully specified (N-terminus); also: RAFT copolymer with PEG methyl ether methacrylate (300 Da), about 12 peptides per chain) [20% TBP-functionalized PEG polymer of Table 4, M:CTA:I 500:1:0.1, Mn 32.7 kDa]", 4.15]
]}

Next item in the queue.
Query string: Give its pKd value. Item: TPLSYLKGLVTVG-OH (not fully specified (N-terminus); also: RAFT copolymer with PEG methyl ether methacrylate (300 Da), about 5 peptides per chain) [5% TBP-functionalized PEG polymer of Table 4, M:CTA:I 250:1:0.1, Mn 42.3 kDa]
Result string: 4.10
